- System: BGC-823
- METHOD DESCRIPTION: Cytotoxicity against human BGC823 cells by MTT assay
- Type: functional, cell-based
Overview of recorded IC50 for various compounds

# IC50 (compound: `CC(=O)[C@@H]1C[C@H]2OC(=O)[C@H](OC(=O)C=C(C)C)[C@H]3[C@]4(C(=O)O)OC[C@]23[C@H]([C@@H](O)[C@@H]4O)[C@@]1(C)CC(=O)O` ) is > 10 µM

Field IC50 (entry `COC(=O)C[C@]1(C)[C@H]2[C@@H](O)[C@H](O)[C@@]3(C(=O)OC)OC[C@@]24[C@@H](C[C@H]1C(C)=O)OC(=O)[C@H](OC(=O)C=C(C)C)[C@@H]34` ) reads > 10 µM

Form: compound = `COC(=O)[C@@]12OC[C@]34[C@H]([C@@H](O)[C@@H]1O)[C@@](C)(CC(=O)O)[C@H]([C@@H](C)C(=O)O)C[C@H]3OC(=O)[C@H](OC(=O)C=C(C)C)[C@@H]24` ; IC50 = > 10 µM
